compounds and their reported Ratio IC50
System: HL-60
Test: Resistance index, ratio of IC50 for human HL60/Vinc cells to IC50 for human HL60 cells
Type: functional
The response must contain the number and no unit.

Example entries begin here.
CC[C@@H](C(=O)[C@@H](C)[C@@H](O)[C@H](C)[C@@H]1O[C@@H]([C@@H](CC)C(=O)NCCc2c[nH]cn2)CC[C@@H]1C)[C@H]1O[C@]2(C=C[C@@H](O)[C@]3(CC[C@@](C)([C@H]4CC[C@](O)(CC)[C@H](C)O4)O3)O2)[C@H](C)C[C@@H]1C :: 7.46
CC[C@@H](C(=O)[C@@H](C)[C@@H](O)[C@H](C)[C@@H]1O[C@@H]([C@@H](CC)C(=O)Nc2ccc(NC(=O)[C@H](CC)[C@H]3CC[C@H](C)[C@H]([C@@H](C)[C@H](O)[C@H](C)C(=O)[C@H](CC)[C@H]4O[C@]5(C=C[C@@H](O)[C@]6(CC[C@@](C)([C@H]7CC[C@](O)(CC)[C@H](C)O7)O6)O5)[C@H](C)C[C@@H]4C)O3)cc2)CC[C@@H]1C)[C@H]1O[C@]2(C=C[C@@H](O)[C@]3(CC[C@@](C)([C@H]4CC[C@](O)(CC)[C@H](C)O4)O3)O2)[C@H](C)C[C@@H]1C :: 7.99
CC[C@@H](C(=O)[C@@H](C)[C@@H](O)[C@H](C)[C@@H]1O[C@@H]([C@@H](CC)C(=O)O)CC[C@@H]1C)[C@H]1O[C@]2(C=C[C@@H](O)[C@]3(CC[C@@](C)([C@H]4CC[C@](O)(CC)[C@H](C)O4)O3)O2)[C@H](C)C[C@@H]1C [SALINOMYCIN] :: 4.05
C#CCNC(=O)[C@H](CC)[C@H]1CC[C@H](C)[C@H]([C@@H](C)[C@H](O)[C@H](C)C(=O)[C@H](CC)[C@H]2O[C@]3(C=C[C@@H](O)[C@]4(CC[C@@](C)([C@H]5CC[C@](O)(CC)[C@H](C)O5)O4)O3)[C@H](C)C[C@@H]2C)O1 :: 1.97
CC[C@@H](C(=O)[C@@H](C)[C@@H](O)[C@H](C)[C@@H]1O[C@@H]([C@@H](CC)C(=O)NCCS)CC[C@@H]1C)[C@H]1O[C@]2(C=C[C@@H](O)[C@]3(CC[C@@](C)([C@H]4CC[C@](O)(CC)[C@H](C)O4)O3)O2)[C@H](C)C[C@@H]1C :: 10.99
CC[C@@H](C(=O)[C@@H](C)[C@@H](O)[C@H](C)[C@@H]1O[C@@H]([C@@H](CC)C(=O)NCCOCCO)CC[C@@H]1C)[C@H]1O[C@]2(C=C[C@@H](O)[C@]3(CC[C@@](C)([C@H]4CC[C@](O)(CC)[C@H](C)O4)O3)O2)[C@H](C)C[C@@H]1C :: 1.74
COc1cccc2c1C(=O)c1c(O)c3c(c(O)c1C2=O)C[C@@](O)(C(=O)CO)C[C@@H]3O[C@H]1C[C@H](N)[C@H](O)[C@H](C)O1 [DOXORUBICIN] :: 44.5
CC[C@@H](C(=O)[C@@H](C)[C@@H](O)[C@H](C)[C@@H]1O[C@@H]([C@@H](CC)C(=O)NCCc2ccc(F)cc2)CC[C@@H]1C)[C@H]1O[C@]2(C=C[C@@H](O)[C@]3(CC[C@@](C)([C@H]4CC[C@](O)(CC)[C@H](C)O4)O3)O2)[C@H](C)C[C@@H]1C :: 2.98

Please examine the following record next.
Challenge: Please report the recorded Ratio IC50 for CC[C@@H](C(=O)[C@@H](C)[C@@H](O)[C@H](C)[C@@H]1O[C@@H]([C@@H](CC)C(=O)NCC2COCCOCCOCCOCCO2)CC[C@@H]1C)[C@H]1O[C@]2(C=C[C@@H](O)[C@]3(CC[C@@](C)([C@H]4CC[C@](O)(CC)[C@H](C)O4)O3)O2)[C@H](C)C[C@@H]1C (some centres undefined) .
Response given: 1.16

The measurements presented in this section are drawn from ChEMBL document CHEMBL3232897.
